experiment summary: Solubility of the compound of Formula (1) in non-ionic surfactants
Assay type: physicochemical
condition label: Kollisolv P124 (non-ionic surfactant), organic solvent or mixture, thermodynamic from solid; in Kollisolv P124 (co-polymer)

{"compound": "Cc1nn(C)cc1-c1nc2c(N3CCN(Cc4ccc(Cl)cc4)CC3)c(Cl)cnc2[nH]1.O=C(O)/C=C/C(=O)O [compound of Formula (1) fumarate]", "solubility at 40 min": "< 4500 µg/mL"}

###

experiment summary: Solubility of the compound of Formula (1) in non-ionic surfactants
Assay type: physicochemical
condition label: Cremophor EL (non-ionic surfactant), organic solvent or mixture, thermodynamic from solid; in Cremophor EL (glycerol derivative)

{"molecule": "Cc1nn(C)cc1-c1nc2c(N3CCN(Cc4ccc(Cl)cc4)CC3)c(Cl)cnc2[nH]1.O=C(O)/C=C/C(=O)O [compound of Formula (1) fumarate]", "solubility at 40 min": "< 4900 µg/mL"}
